Below is a list of entries, each paired with its recorded inhibition value.
Target: Microphthalmia-associated transcription factor (Homo sapiens)
Test: MITF inhibitors, primary screen, biochemical, AlphaScreen, human (AID 1259374);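 further: 0% = vehicle wells with protein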
Details: AlphaScreen MITF homodimerization, bead proximity signal; at 2.6 µM; hits give high values
In all, about 650,000 compounds went through this assay and about 5,900 (0.91%) were called active. Many of the other results were omitted from the sample, so actives are more common in it than they were.
endpoint_name: inhibition (%)

compound | endpoint_name | unit_info | reported_result
COc1ccc(NC(=O)CN2CCN(S(=O)(=O)c3cc(Cl)ccc3OC)CC2)c(OC)c1 | inhibition | % | 6.53
CC1CN(C(=O)COC(=O)c2cc(O)c(O)c(O)c2)CC(C)O1 (stereo not given) | inhibition | % | 54.2
CCCS(=O)(=O)N1CCN(c2ccc(C)nn2)CC1 | inhibition | % | 1.44
CCN1CCN(CC(=O)Nc2ccc(N(CC)CC)cc2C)CC1 | inhibition | % | 70.1
CCOc1ccccc1NC(=O)c1ccccc1NC(=O)c1ccc(OC)cc1 | inhibition | % | -3.48
CC1CCN(c2cc(NCC(=O)O)c3c4c(onc24)-c2ccccc2C3=O)CC1 | inhibition | % | 51.3
Cc1ccc(OCC(=O)N2CCC(C(=O)O)CC2)cc1C | inhibition | % | 6.47
CCOc1ccc(Nc2n[nH]c(C)c2[N+](=O)[O-])cc1 | inhibition | % | -3.22
CCCCNC(=O)/C(=C/c1ccco1)NC(=O)c1ccccc1 | inhibition | % | 5.66
CCN(CC)c1ccc(NC(=O)c2ccc(OC)cc2)c(C)c1 | inhibition | % | -6.58

---

Biological target: Microphthalmia-associated transcription factor (Homo sapiens)
Assay: MITF inhibitors, primary screen, biochemical, AlphaScreen, human (AID 1259374);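 further: 0% = vehicle wells with protein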
Details: AlphaScreen MITF homodimerization, bead proximity signal; at 2.6 µM; hits give high values
In all, about 650,000 compounds went through this assay and about 5,900 (0.91%) were called active. What follows is part of a selection rich in actives, with near analogues and random picks from the rest.
Label MET when inhibition is at or above 20%; anything below gets NOT MET.

compound | target | assigned_class
CC(=O)Nc1ccc(OCC(O)CN2CCN(c3cccc(C(F)(F)F)c3)CC2)cc1 (stereo not drawn) | Microphthalmia-associated transcription factor (Homo sapiens) | NOT MET
O=C(COc1ccc([N+](=O)[O-])cc1)Nc1ccc(Cl)cc1 | Microphthalmia-associated transcription factor (Homo sapiens) | NOT MET
COc1ccc(CNC(=O)CC(C)C)cc1 | Microphthalmia-associated transcription factor (Homo sapiens) | NOT MET
CN(C)c1ccc(C2/C(=C(/O)c3ccccc3)C(=O)C(=O)N2CCO)cc1 (stereo not drawn) | Microphthalmia-associated transcription factor (Homo sapiens) | NOT MET
COc1ccc(Cn2nc(-c3ccncc3)oc2=O)cc1 | Microphthalmia-associated transcription factor (Homo sapiens) | NOT MET
Cc1[nH]c2ccccc2c1CN1CCN(Cc2ccc3c(c2)OCO3)CC1 | Microphthalmia-associated transcription factor (Homo sapiens) | MET
COc1ccc(CNCC2CN(CC(C)C)CCO2)cc1 (stereo not drawn) | Microphthalmia-associated transcription factor (Homo sapiens) | MET
CCOc1ccccc1CN1CCN(Cc2cccnc2)CC1CCO (stereo not drawn) | Microphthalmia-associated transcription factor (Homo sapiens) | NOT MET
COc1ccc2c(c1)CC(C(=O)Nc1ccc(-c3cn[nH]c3)cc1OCc1ccccc1)CO2 (stereo not drawn) | Microphthalmia-associated transcription factor (Homo sapiens) | MET
O=C(Cc1ccccc1[N+](=O)[O-])NNC(=O)Nc1ccccc1C(F)(F)F | Microphthalmia-associated transcription factor (Homo sapiens) | NOT MET
O=c1c2ccccc2ncn1CCCCOc1ccccc1F | Microphthalmia-associated transcription factor (Homo sapiens) | MET
O=C(O)CN1C(=O)/C(=C\c2ccc(O)c(Br)c2)SC1=S | Microphthalmia-associated transcription factor (Homo sapiens) | NOT MET
O=C(CCC(=O)OCc1ccc(Cl)cc1)Nc1ccc([N+](=O)[O-])cc1 | Microphthalmia-associated transcription factor (Homo sapiens) | MET
O=[N+]([O-])c1ccccc1CN1CCN(Cc2cccnc2)CC1 | Microphthalmia-associated transcription factor (Homo sapiens) | MET
COc1ccc2c(c1)CC(C(=O)Nc1ccc(-c3cn[nH]c3)cc1O[C@H]1CCOC1)CO2 (stereo partly drawn) | Microphthalmia-associated transcription factor (Homo sapiens) | NOT MET
O=C(O)C1c2ccccc2C(=O)N(Cc2ccc(F)cc2)C1c1cccc(F)c1 (stereo not drawn) | Microphthalmia-associated transcription factor (Homo sapiens) | NOT MET
COc1ccc(C(=O)Nc2ccc3scnc3c2)cc1 | Microphthalmia-associated transcription factor (Homo sapiens) | NOT MET
O=C(CN(Cc1ccccc1)S(=O)(=O)c1ccc(F)cc1)NCCc1ccccc1 | Microphthalmia-associated transcription factor (Homo sapiens) | NOT MET
